Please respond with reported CTG-3D luminescence at 96 h for every item in the list.
Test system: HCI-027 (organoid from a triple-negative breast cancer xenograft)
Experiment: CTG-3D luminescence at 96 h relative to day-0 seeding control (ratio to day 0); higher = more growth / less cytotoxicity; PDxO 3D drug screen (set 2), 96 h, CTG-3D normalised to day-0 seeding control.
Settings: 625 fM; days in culture: 158
Give the figure only, with no unit attached.

Prompt: Indicate the recorded CTG-3D luminescence at 96 h value for this compound: Nc1cc(C(F)(F)F)c(-c2cc(N3CCOCC3)nc(N3CCOCC3)n2)cn1
Response: 2.61

Prompt: Indicate the recorded CTG-3D luminescence at 96 h value for this compound: CO[C@H]1C[C@@H]2CC[C@@H](C)[C@@](O)(O2)C(=O)C(=O)N2CCCC[C@H]2C(=O)O[C@H]([C@H](C)C[C@@H]2CC[C@@H](O)[C@H](OC)C2)CC(=O)[C@H](C)/C=C(\C)[C@@H](O)[C@@H](OC)C(=O)[C@H](C)C[C@H](C)/C=C/C=C/C=C/1C
Response: 4.51

Prompt: Indicate the recorded CTG-3D luminescence at 96 h value for this compound: CC(=O)c1c(C)c2cnc(Nc3ccc(N4CCNCC4)cn3)nc2n(C2CCCC2)c1=O
Response: 3.32

Prompt: Indicate the recorded CTG-3D luminescence at 96 h value for this compound: CCOc1ccn(-c2ccc(F)cc2)c(=O)c1C(=O)Nc1ccc(Oc2ccnc(N)c2Cl)c(F)c1
Response: 4.78

====

System: HCI-023 (organoid from a triple-negative breast cancer xenograft)
Test: CTG-3D luminescence at 96 h relative to day-0 seeding control (ratio to day 0); higher = more growth / less cytotoxicity; PDxO 3D drug screen, 96 h, CTG-3D normalised to day-0 seeding control.
Details: 0.005 µM; days in culture: 128
Classification field: enter Yes for CTG-3D luminescence at 96 h values not below 1, No for values below it.

Prompt: I'd appreciate it if you could say whether NC1(C(=O)N[C@@H](CCO)c2ccc(Cl)cc2)CCN(c2nc[nH]c3nccc2-3)CC1 has CTG-3D luminescence at 96 h at least equal to 1.
Response: Yes

Prompt: I'd appreciate it if you could say whether C=CC(=O)N1CCC[C@@H](n2nc(-c3ccc(Oc4ccccc4)cc3)c3c(N)ncnc32)C1 has CTG-3D luminescence at 96 h at least equal to 1.
Response: Yes

Prompt: I'd appreciate it if you could say whether COc1cccc2c1C(=O)c1c(O)c3c(c(O)c1C2=O)C[C@@](O)(C(=O)CO)C[C@@H]3O[C@H]1C[C@H](N)[C@H](O)[C@H](C)O1 has CTG-3D luminescence at 96 h at least equal to 1.
Response: Yes

Prompt: I'd appreciate it if you could say whether COc1cc2c(Oc3ccc4[nH]c(C)cc4c3F)ncnc2cc1OCCCN1CCCC1 has CTG-3D luminescence at 96 h at least equal to 1.
Response: Yes

Prompt: I'd appreciate it if you could say whether CNC(=O)c1cccc(-c2ccc3c(N4CCOC[C@@H]4C)nc(N4CCOC[C@@H]4C)nc3n2)c1 has CTG-3D luminescence at 96 h at least equal to 1.
Response: Yes

Prompt: I'd appreciate it if you could say whether CN(Cc1cnc2nc(N)nc(N)c2n1)c1ccc(C(=O)N[C@@H](CCC(=O)O)C(=O)O)cc1 [methotrexate] has CTG-3D luminescence at 96 h at least equal to 1.
Response: Yes

Prompt: I'd appreciate it if you could say whether C[C@@H]1COCCN1c1cc(C2([S@](C)(=N)=O)CC2)nc(-c2cc[nH]c3nccc2-3)n1 has CTG-3D luminescence at 96 h at least equal to 1.
Response: Yes

Prompt: I'd appreciate it if you could say whether CC1(C)CCC(c2ccc(Cl)cc2)=C(CN2CCN(c3ccc(C(=O)NS(=O)(=O)c4ccc(N[C@H](CCN5CCOCC5)CSc5ccccc5)c(S(=O)(=O)C(F)(F)F)c4)cc3)CC2)C1 has CTG-3D luminescence at 96 h at least equal to 1.
Response: Yes

Prompt: I'd appreciate it if you could say whether CC[C@H](NC(=O)[C@H](C)NC)C(=O)N1C[C@@H](O)C[C@H]1Cc1c(-c2[nH]c3cc(F)ccc3c2C[C@@H]2C[C@H](O)CN2C(=O)[C@H](CC)NC(=O)[C@H](C)NC)[nH]c2cc(F)ccc12 has CTG-3D luminescence at 96 h at least equal to 1.
Response: No

Prompt: I'd appreciate it if you could say whether O=C(O)C1(C(=O)O)CCC1.[NH2-].[NH2-].[Pt+2] has CTG-3D luminescence at 96 h at least equal to 1.
Response: Yes

Prompt: I'd appreciate it if you could say whether CC(=O)O[C@H]1C(=O)[C@@]2(C)[C@H]([C@H](OC(=O)c3ccccc3)[C@]3(O)C[C@H](OC(=O)[C@H](O)[C@@H](NC(=O)c4ccccc4)c4ccccc4)C(C)=C1C3(C)C)[C@]1(OC(C)=O)CO[C@@H]1C[C@@H]2O has CTG-3D luminescence at 96 h at least equal to 1.
Response: No

====

Please respond with reported CTG-3D luminescence at 96 h for every item in the list.
System: HCI-025 (organoid from a breast cancer xenograft)
Experiment: CTG-3D luminescence at 96 h relative to day-0 seeding control (ratio to day 0); higher = more growth / less cytotoxicity; PDxO 3D drug screen, 96 h, CTG-3D normalised to day-0 seeding control.
Details: 1 µM; days in culture: 172
Give the figure only, with no unit attached.

Prompt: Indicate the recorded CTG-3D luminescence at 96 h value for this molecule: O=C(c1ccc(F)c(F)c1Nc1ccc(I)cc1F)N1CC(O)([C@@H]2CCCCN2)C1
Response: 1.47

Prompt: Indicate the recorded CTG-3D luminescence at 96 h value for this molecule: CC1(C)CCC(c2ccc(Cl)cc2)=C(CN2CCN(c3ccc(C(=O)NS(=O)(=O)c4ccc(N[C@H](CCN5CCOCC5)CSc5ccccc5)c(S(=O)(=O)C(F)(F)F)c4)cc3)CC2)C1
Response: 0.555

Prompt: Indicate the recorded CTG-3D luminescence at 96 h value for this molecule: COc1cccc2c1C(=O)c1c(O)c3c(c(O)c1C2=O)C[C@@](O)(C(=O)CO)C[C@@H]3O[C@H]1C[C@H](N)[C@H](O)[C@H](C)O1
Response: 0.663

Prompt: Indicate the recorded CTG-3D luminescence at 96 h value for this molecule: CNC(=O)c1cccc(-c2ccc3c(N4CCOC[C@@H]4C)nc(N4CCOC[C@@H]4C)nc3n2)c1
Response: 0.649

Prompt: Indicate the recorded CTG-3D luminescence at 96 h value for this molecule: C[C@H](NC(=O)CCC(F)(F)F)C(=O)N[C@@H]1C(=O)N(CCO)c2ncccc2-c2ccccc21
Response: 3.2

Prompt: Indicate the recorded CTG-3D luminescence at 96 h value for this molecule: NC(=O)c1cccc2cn(-c3ccc([C@@H]4CCCNC4)cc3)nc12
Response: 2.08

Prompt: Indicate the recorded CTG-3D luminescence at 96 h value for this molecule: CC(=O)O[C@H]1C(=O)[C@@]2(C)[C@H]([C@H](OC(=O)c3ccccc3)[C@]3(O)C[C@H](OC(=O)[C@H](O)[C@@H](NC(=O)c4ccccc4)c4ccccc4)C(C)=C1C3(C)C)[C@]1(OC(C)=O)CO[C@@H]1C[C@@H]2O
Response: 0.362

Prompt: Indicate the recorded CTG-3D luminescence at 96 h value for this molecule: CCN1CCN(Cc2ccc(Nc3ncc(F)c(-c4cc(F)c5nc(C)n(C(C)C)c5c4)n3)nc2)CC1
Response: 2.55

====

Tested on: HCI-024 (organoid from a breast cancer xenograft)
Assay: CTG-3D luminescence at 96 h relative to day-0 seeding control (ratio to day 0); higher = more growth / less cytotoxicity; PDxO 3D drug screen (set 2), 96 h, CTG-3D normalised to day-0 seeding control.
Conditions: 10 µM; days in culture: 231
Endpoint name: CTG-3D luminescence at 96 h
Give the figure only, with no unit attached.

Prompt: Indicate the recorded CTG-3D luminescence at 96 h value for this molecule: CC(C)n1nc(-c2ccc3oc(N)nc3c2)c2c(N)ncnc21 [sapanisertib]
Response: 0.241

Prompt: Indicate the recorded CTG-3D luminescence at 96 h value for this molecule: C[C@@H](Nc1cc(F)cc(F)c1)c1cc(C(=O)N(C)C)cc2c(=O)cc(N3CCOCC3)oc12 [AZD-8186]
Response: 0.93

Prompt: Indicate the recorded CTG-3D luminescence at 96 h value for this molecule: Cc1c(CN2CCN(C(=O)[C@H](C)O)CC2)sc2c(N3CCOCC3)nc(-c3cnc(N)nc3)nc12 [apitolisib]
Response: 0.527

Prompt: Indicate the recorded CTG-3D luminescence at 96 h value for this molecule: CO[C@H]1C[C@@H]2CC[C@@H](C)[C@@](O)(O2)C(=O)C(=O)N2CCCC[C@H]2C(=O)O[C@H]([C@H](C)C[C@@H]2CC[C@@H](OCCO)[C@H](OC)C2)CC(=O)[C@H](C)/C=C(\C)[C@@H](O)[C@@H](OC)C(=O)[C@H](C)C[C@H](C)/C=C/C=C/C=C/1C [everolimus]
Response: 1.11

Prompt: Indicate the recorded CTG-3D luminescence at 96 h value for this molecule: CCOc1ccn(-c2ccc(F)cc2)c(=O)c1C(=O)Nc1ccc(Oc2ccnc(N)c2Cl)c(F)c1 [ASLAN002]
Response: 1.02

Prompt: Indicate the recorded CTG-3D luminescence at 96 h value for this molecule: CS(=O)(=O)CCNCc1ccc(-c2ccc3ncnc(Nc4ccc(OCc5cccc(F)c5)c(Cl)c4)c3c2)o1 [lapatinib]
Response: 0.512

Prompt: Indicate the recorded CTG-3D luminescence at 96 h value for this molecule: O=C(c1cc(Cc2n[nH]c(=O)c3ccccc23)ccc1F)N1CCN(C(=O)C2CC2)CC1 [olaparib]
Response: 1.27

Source of measurements: the supplement of paper PMC8882468
